Value source: patent US20100022531A1

target: P2X7 receptor (Homo sapiens, UniProt Q99572); construct: host or cells: THP-1 cells differentiated with LPS and IFN-γ; assay: Alternate method for IL-1β release assay (differentiated THP-1 cells, BzATP-stimulated, ELISA); type: cell-based; conditions: P2X7; 0.3 μM compound (asterisk symbols); read-out: IL-1β % inhib @ 0.3 μM
Sequence (Q99572 whole entry): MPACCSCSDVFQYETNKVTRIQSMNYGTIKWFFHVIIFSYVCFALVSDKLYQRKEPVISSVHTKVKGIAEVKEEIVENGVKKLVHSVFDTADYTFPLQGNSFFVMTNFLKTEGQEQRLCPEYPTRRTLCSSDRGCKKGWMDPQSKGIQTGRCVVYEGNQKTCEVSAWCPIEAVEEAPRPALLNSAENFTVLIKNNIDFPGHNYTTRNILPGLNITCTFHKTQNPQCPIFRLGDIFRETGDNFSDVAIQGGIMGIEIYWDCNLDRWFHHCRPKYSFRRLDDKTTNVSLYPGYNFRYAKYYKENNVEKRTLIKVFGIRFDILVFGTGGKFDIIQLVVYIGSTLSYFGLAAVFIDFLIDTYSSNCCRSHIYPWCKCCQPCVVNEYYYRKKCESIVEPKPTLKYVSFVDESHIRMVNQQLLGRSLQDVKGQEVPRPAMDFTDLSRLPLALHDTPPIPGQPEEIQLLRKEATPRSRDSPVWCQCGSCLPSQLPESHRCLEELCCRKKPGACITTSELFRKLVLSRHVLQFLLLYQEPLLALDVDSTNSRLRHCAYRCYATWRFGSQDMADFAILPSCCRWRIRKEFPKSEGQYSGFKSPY
The following compounds are shown together with reported inhibition at 0.3 µM values.

{"Compound": "Cc1ccccc1C(=O)N1CCc2c(ncnc2NCC23CC4CC(CC(C4)C2)C3)C1 [Compound 133]", "inhibition at 0.3 µM": "25 to 50%"}
{"Compound": "CC(CCN1CCc2c(ncnc2NCC23CC4CC(CC(C4)C2)C3)C1)CC(C)(C)C (centres unmarked) [Compound 163]", "inhibition at 0.3 µM": "> 75%"}
{"Compound": "Cc1cccc(C(=O)N2CCc3c(ncnc3NCC34CC5CC(CC(C5)C3)C4)C2)c1 [Compound 86]", "inhibition at 0.3 µM": "> 75%"}
{"Compound": "Cc1cc(C(=O)N2CCc3c(ncnc3NCC34CC5CC(CC(C5)C3)C4)C2)n(C(C)(C)C)n1 [Compound 151]", "inhibition at 0.3 µM": "25 to 50%"}
{"Compound": "Cc1ccc(F)cc1S(=O)(=O)N1CCc2c(ncnc2NCC23CC4CC(CC(C4)C2)C3)C1 [Compound 69]", "inhibition at 0.3 µM": "0 to 25%"}

Req: Query inhibition at 0.3 µM on P2X7 receptor (Homo sapiens, UniProt Q99572) for Cc1nc(S(=O)(=O)N2CCc3c(ncnc3NCC34CC5CC(CC(C5)C3)C4)C2)cn1C [Compound 22]
Resp: 0 to 25%

Req: Query inhibition at 0.3 µM on P2X7 receptor (Homo sapiens, UniProt Q99572) for O=C(c1c(F)cccc1Cl)N1CCc2c(ncnc2NCC23CC4CC(CC(C4)C2)C3)C1 [Compound 127]
Resp: > 75%

Req: Query inhibition at 0.3 µM on P2X7 receptor (Homo sapiens, UniProt Q99572) for O=S(=O)(c1cccc(C(F)(F)F)c1)N1CCc2c(ncnc2NCC23CC4CC(CC(C4)C2)C3)C1 [Compound 15]
Resp: 0 to 25%

----------
Target: P2X7 receptor (Homo sapiens)
Construct: host or cells: THP-1 cells differentiated with LPS and IFN-γ
Assay: Alternate method for IL-1β release assay (differentiated THP-1 cells, BzATP-stimulated, ELISA)
Assay type: cell-based
Conditions: P2X7; 0.1 μM compound (symbols + to ++++); read-out: IL-1β % inhib @ 0.1 μM
Experimental: Alternate Method for IL-1β Release Assay THP-1 cells (ATCC Cat #285-IF-100) are plated in 96 well plates at a concentration of 200,000 cells per well and allowed to differentiate in RPMI-1640 media (ATCC Cat #30-2001) containing 10% FBS, 100 IU/mL penicillin, 100 ug/mL streptomycin, 100 ng/mL LPS and 100 ng/mL IFN-γ for 16 hours. […]
The following compounds are shown together with reported inhibition at 0.1 µM values.

Examples with answers:
{"Compound": "O=C(COc1cccc(Cl)c1)N1CCc2c(ncnc2NCC23CC4CC(CC(C4)C2)C3)C1 [Compound 248]", "System Name": "P2X7 receptor (Homo sapiens)", "inhibition at 0.1 µM": "> 75%"}
{"Compound": "O=C(OCc1ccc(F)cc1F)N1CCc2c(ncnc2NCC23CC4CC(CC(C4)C2)C3)C1 [Compound 325]", "System Name": "P2X7 receptor (Homo sapiens)", "inhibition at 0.1 µM": "> 75%"}
{"Compound": "O=C(c1cccnc1)N1CCc2c(ncnc2NCC23CC4CC(CC(C4)C2)C3)C1 [Compound 257]", "System Name": "P2X7 receptor (Homo sapiens)", "inhibition at 0.1 µM": "> 75%"}
{"Compound": "FC12CC3CC(C1)CC(CNc1ncnc4c1CCN(Cc1ccccc1)C4)(C3)C2 [Compound 252]", "System Name": "P2X7 receptor (Homo sapiens)", "inhibition at 0.1 µM": "> 75%"}
{"Compound": "O=C(c1cccnc1)N1CCc2c(ncnc2NCC23CC4CC(CC(F)(C4)C2)C3)C1 [Compound 322]", "System Name": "P2X7 receptor (Homo sapiens)", "inhibition at 0.1 µM": "25 to 50%"}

Req: Would you kindly share the measured inhibition at 0.1 µM for FC12CC3CC(C1)CC(CNc1ncnc4c1CCN(Cc1ccc5c(c1)OCCO5)C4)(C3)C2 [Compound 332] ?
Resp: 0 to 25%
